Biological target: GABARAP, O95166
Sequence (O95166 whole entry, the tested form may be a part): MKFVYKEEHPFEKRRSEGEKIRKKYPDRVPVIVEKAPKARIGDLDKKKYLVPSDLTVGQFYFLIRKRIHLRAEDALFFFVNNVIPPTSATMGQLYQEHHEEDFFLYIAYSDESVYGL
Assay: median log2 fold change of GCK-ALFA target abundance (FLAG IP / Myc IP barcode read proportion) (log2 ratio); each designed protein is fused to an ALFA-tag nanobody in HEK293 cells to bring the named protein to FLAG-tagged glucokinase (GCK); Myc marks an untargeted standard; higher = target protein stabilised (more abundant)
Settings: target protein: 3xFLAG-MCP-GCK-ALFA reporter; HEK293 landing pad (RPLP)
Over roughly 4,500 sequences, “median log2 fold change of GCK-ALFA target abundance (FLAG IP / Myc IP barcode read proportion)” has its median near 0.078; the lowest 2% begin near -0.6. Shown is part of a subset that was picked to be rich in the lowest values.
# binarize median log2 fold change: threshold 0.2 inclusive, high side 1.0, low side 0.0

Would you please look over these solved cases?
{"binder": "GBRAP_83_6961 (protein) MIVVAASERPESIRSSIEAAIDLHKNEGKEVEIELFVTRENAPAALEGLKKAIDAGVEAEITLVTREEDREAAEALAAELKAYAAAKGRNTTVTVEVLPA", "classLabel": 0.0}
{"binder": "GBRAP_125_3133 (protein) MTEEILEDLAIVARALGFSDDDVEEAVEIARKHGVKGTLYAIMLALGYEEVADLVEKITEEEAIEVLREVAARIREDPSLTPEEVVALIKELLKEKIAKK", "classLabel": 0.0}

# evaluate next
Quick check: does GBRAP_160_4075 (protein) SKETEELKKEIKEIAEEAIEFIKESNLENQIAIAEMMAGDILMLVFEAPFISDEDEERIDKILDKYVELLKENKDWSLEEKEEIIKEMAEEVIKEVEKAS have median log2 fold change greater than or equal to 0.2? 0.0
